# test target: central benzodiazepine receptor (CBR)
# test conditions: read-out: Ki CBR; displacement of [^3H]flunitrazepam, rat cerebral cortex
pKi: −log10 of the molar value.
assay readout: pKi

>>> recorded_result("CCCN(CCC)C(=O)Cc1c(-c2ccc(F)cc2)nc2c(Cl)cc(Cl)cn12 [BS224]")
"< 4.00"
>>> recorded_result("CCCN(CCC)C(=O)Cc1c(-c2ccc(OCCF)cc2)nc2c(Cl)cc(Cl)cn12 [CB251]")
"< 4.00"
>>> recorded_result("CN1C(=O)CN=C(c2ccccc2F)c2cc([N+](=O)[O-])ccc21 [Flunitrazepam]")
8.21
>>> recorded_result("CCC(C)N(C)C(=O)c1cc2ccccc2c(-c2ccccc2Cl)n1 (stereo not shown) [PK 11195]")
"< 4.00"
